# Assay method text: Toxicity liver stage against HepG2, at 10uM
# Assay type: cell-based
# Set-up: test concentration 10 uM, cell line HepG2-A16-CD81EGFP
# Study conditions: human, HepG2-A16-CD81EGFP cells; read-out: INHIBITION
Readout kind: cytotoxicity at 10 µM (%)
Numeric answer only, unit % assumed.

The following compounds have reported results that may help.
[
  {
    "Compound": "COCC1CN(Cc2ccc(F)cc2)Cc2nn(C)cc21 (stereo not given)",
    "Display unit": "%",
    "cytotoxicity at 10 µM": -81.4
  },
  {
    "Compound": "COc1ccc(CC(=O)NC2(C)CCS(=O)(=O)C2)cc1F (stereo not given)",
    "Display unit": "%",
    "cytotoxicity at 10 µM": 2.05
  },
  {
    "Compound": "CN1CCOC(C)(C(=O)N2CCSCC2)C1 (stereo not given)",
    "Display unit": "%",
    "cytotoxicity at 10 µM": -9.71
  },
  {
    "Compound": "Cc1nc(NC(=O)c2c(-n3cnnn3)sc(C)c2C)sc1C",
    "Display unit": "%",
    "cytotoxicity at 10 µM": 2.13
  },
  {
    "Compound": "CN(C)c1cc(C(=O)N2CCN(c3cnccn3)CC2)ccn1",
    "Display unit": "%",
    "cytotoxicity at 10 µM": -7.64
  },
  {
    "Compound": "CC(C#N)CSc1ccccc1NCC(=O)NC(C1CC1)C1CC1 (stereo not given)",
    "Display unit": "%",
    "cytotoxicity at 10 µM": 14.5
  }
]

*Q* # get_value(readout='cytotoxicity at 10 µM', item= CCc1nc(CN2CCCC(Cn3nc(C)nc3C)C2)no1 (stereo not given) )
*A* -2.68

*Q* Cool, now Cc1cc(CN2CCN(C(=O)NCCc3csc(C)n3)CC2)on1
*A* -2.68

*Q* Cool, now COCCc1noc(CN2CCCC2c2noc(C)n2)n1 (stereo not given)
*A* 4.73

*Q* Cool, now COC(=O)c1ccc(N2CCN(C(=O)c3cnccn3)C(C)C2)cc1 (stereo not given)
*A* -12.9

*Q* Cool, now COCC(Nc1ncnc2c1CCNCC2)c1ccccn1 (stereo not given)
*A* 0.565

*Q* Cool, now Cc1nnn2c1COCC(CNC(=O)c1ccc[nH]1)C2 (stereo not given)
*A* 2.7

*Q* Cool, now CC1CCCN(C(=O)C2CCN(c3snc4ccccc34)CC2)C1 (stereo not given)
*A* 10.1

*Q* Cool, now COC1CN(C(=O)CC(C)(C)C)CCC(=O)N(C)c2ccccc21 (stereo not given)
*A* -4.7

*Q* Cool, now CN(c1cccc2ccccc12)S(=O)(=O)c1cc(C(=O)O)cs1
*A* -2.88

*Q* Cool, now CC(C)(C)c1ccc(C2(C(=O)NCCS(C)(=O)=O)CC2)cc1
*A* 2.91

*Q* Cool, now O=C1NCC(C(=O)NCc2ccccc2CN2CCOCC2)N1 (stereo not given)
*A* 3.64

* * *

# Assay method text: Toxicity liver stage against HepG2, at 10uM
# Type: cell-based
# Design: test concentration 10 uM, cell line HepG2-A16-CD81EGFP
# Study conditions: human, HepG2-A16-CD81EGFP cells; read-out: INHIBITION
Each entry below lists one item and its recorded cytotoxicity at 10 µM value.

*Q* # get_value(readout='cytotoxicity at 10 µM', item= CO[C@H]1CCN(C(=O)Cc2ccsc2)[C@@H]2CN(CC3CC3)C[C@H]12 )
*A* 6.35%
